Test system: LOC_OS01G14860-cb001;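 further: purified Escherichia coli-expressed rice kinase domain construct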
assay.info: thermal shift delta Tm vs DMSO control; higher = stronger stabilization (binding)
run.parameters: 12.5 µM; protein concentration 2 µM
Structures can show the parent of a compound that is named as a salt.
readout.label: thermal shift delta Tm (°C)
Form entry: value (°C) — number only.

Exam item: Please give measured thermal shift delta Tm of the following entry: `N#C/C(=C(/N)Sc1ccc(N)cc1)c1ccccc1C(F)(F)F`
Marked response: 0.5

Exam item: Please give measured thermal shift delta Tm of the following entry: CCC[C@H](NC(=O)/C(C#N)=C/c1cccc(Br)n1)c1ccccc1 [Degrasyn (WP1130)]
Marked response: -2.02

Exam item: Please give measured thermal shift delta Tm of the following entry: Cn1cnc(N)c2ncnc1-2 [3-Methyladenine (3-MA)]
Marked response: -0.3

Exam item: Please give measured thermal shift delta Tm of the following entry: Cc1ccc(C(=O)Nc2ccc(CN3CCN(C)CC3)c(C(F)(F)F)c2)cc1C#Cc1cnc2[nH]ncc2c1 [GZD824 Dimesylate]
Marked response: 6.49

Exam item: Please give measured thermal shift delta Tm of the following entry: `Cn1cc(-c2ccc(F)c(C(F)(F)F)c2)nc1C1CCN(c2ncnc3[nH]ncc23)CC1`
Marked response: 1.8

Exam item: Please give measured thermal shift delta Tm of the following entry: `CCn1nc(C2CCN(C(=O)CCO)CC2)nc1-c1cnc(N)c(-c2nnc(C(C)(C)C)o2)n1`
Marked response: 2.91

Exam item: Please give measured thermal shift delta Tm of the following entry: FC(F)(F)c1ccc(Nc2nc3ccc(Oc4ccnc(-c5ncc(C(F)(F)F)[nH]5)c4)cc3[nH]2)cc1 [Raf265 derivative]
Marked response: 4.58

Exam item: Please give measured thermal shift delta Tm of the following entry: `C=CC(=O)Nc1cccc(Oc2nc(Nc3ccc(N4CCN(C)CC4)cc3)nc3ccsc23)c1`
Marked response: 0.91

Exam item: Please give measured thermal shift delta Tm of the following entry: `CS(=O)(=O)N1CCc2c(-c3cnc(N)nc3)nc(N3CCOCC3)nc21`
Marked response: 0.7

Exam item: Please give measured thermal shift delta Tm of the following entry: O=C(NCc1ccccc1)c1csc(Nc2ccncn2)n1 [Thiazovivin]
Marked response: 3.98

Exam item: Please give measured thermal shift delta Tm of the following entry: `NC(=O)c1cnc2[nH]ccc2c1N[C@@H]1[C@@H]2CC3C[C@H]1C[C@@](O)(C3)C2`
Marked response: 5.61

Exam item: Please give measured thermal shift delta Tm of the following entry: `COc1cccc2cc(-c3nc([C@H]4CC[C@H](C(=O)O)CC4)n4ncnc(N)c34)[nH]c12`
Marked response: 0.44

Exam item: Please give measured thermal shift delta Tm of the following entry: O=c1c(O)c(-c2ccc(O)c(O)c2)oc2cc(O)cc(O)c12 [Quercetin]
Marked response: 3.55

Exam item: Please give measured thermal shift delta Tm of the following entry: `CC(C)(CO)n1cc(C(=O)c2cncc(NC(=O)Cc3ccc(Cl)cn3)c2)c2cnc(N)nc21`
Marked response: 0.5

Exam item: Please give measured thermal shift delta Tm of the following entry: Cc1cc(O)c(-c2ccc([C@@H](C)CN)cc2)c2c1[nH]c(=O)c1sccc12 [OTS514 hydrochloride]
Marked response: 5.36

Exam item: Please give measured thermal shift delta Tm of the following entry: `CN(C)Cc1cccc(N=C(c2ccccc2)c2c(O)[nH]c3cc(C(=O)N(C)C)ccc23)c1`
Marked response: 0.13

Exam item: Please give measured thermal shift delta Tm of the following entry: `CCCS(=O)(=O)Nc1ccc(F)c(C(=O)c2c[nH]c3ncc(Cl)cc23)c1F`
Marked response: 0.85

Exam item: Please give measured thermal shift delta Tm of the following entry: `CC(=O)Nc1nc(C)c(-c2ccc(Cl)c(S(=O)(=O)NCCO)c2)s1`
Marked response: 0.16

Exam item: Please give measured thermal shift delta Tm of the following entry: `Cn1cc(-c2cnn3c(N)c(Br)c([C@@H]4CCCNC4)nc23)cn1`
Marked response: 0.82

Exam item: Please give measured thermal shift delta Tm of the following entry: `Cc1csc(-c2nnc(Nc3ccc(Oc4ncccc4-c4ccnc(N)n4)cc3)c3ccccc23)c1`
Marked response: 0.97

Exam item: Please give measured thermal shift delta Tm of the following entry: `CCn1cc(-c2ccnc3[nH]c(-c4cccc(CN(C)C)c4)cc23)c(-c2ccc(NC(=O)N(C)C)cc2)n1`
Marked response: 2.81

Exam item: Please give measured thermal shift delta Tm of the following entry: `CC(C)(C)NC(=O)c1cncn1C1CCN(c2ccc(-c3nnc(C(F)(F)F)o3)cn2)CC1`
Marked response: 0.2

Exam item: Please give measured thermal shift delta Tm of the following entry: COc1cc(Nc2ncc3c(n2)-c2ccc(Cl)cc2C(c2c(F)cccc2OC)=NC3)ccc1C(=O)O [Alisertib (MLN8237)]
Marked response: 0.35

Exam item: Please give measured thermal shift delta Tm of the following entry: CC(=O)O/N=C1/C(c2c(O)[nH]c3cc(Br)ccc23)=Nc2ccccc21 [BIO-acetoxime]
Marked response: 6.31

Exam item: Please give measured thermal shift delta Tm of the following entry: `O=C1NC(=O)/C(=C/c2ccc(-c3ccc(F)cc3O)o2)S1`
Marked response: 4.25

Exam item: Please give measured thermal shift delta Tm of the following entry: `CN1CCN(c2cccc(Nc3nc4c(-c5ccc(S(C)(=O)=O)cc5)cccn4n3)c2)CC1`
Marked response: 0.51

Exam item: Please give measured thermal shift delta Tm of the following entry: CNC(=O)c1cccc(-c2ccc3c(N4CCOC[C@@H]4C)nc(N4CCOC[C@@H]4C)nc3n2)c1 [Vistusertib (AZD2014)]
Marked response: -0.13

Exam item: Please give measured thermal shift delta Tm of the following entry: `Cn1ncc(Cl)c1-c1cc(C(=O)N[C@H](CN)Cc2cccc(F)c2)sc1Cl`
Marked response: 0.67

Exam item: Please give measured thermal shift delta Tm of the following entry: `CC(C)Oc1ccc(-c2nn([C@@H](C)c3oc4ccc(F)cc4c(=O)c3-c3cccc(F)c3)c3ncnc(N)c23)cc1F`
Marked response: 0.59

Exam item: Please give measured thermal shift delta Tm of the following entry: O=C(/C=C/c1ccc(O)c(O)c1)c1ccc(O)cc1O [Butein]
Marked response: 4.26

Exam item: Please give measured thermal shift delta Tm of the following entry: `Oc1cccc(-c2nc(N3CCOCC3)c3oc4ncccc4c3n2)c1`
Marked response: 0.17

Exam item: Please give measured thermal shift delta Tm of the following entry: `Cc1ccc(C(=O)Nc2cccc(C(F)(F)F)c2)cc1Nc1nc(-c2cccnc2)nc2c1cnn2C`
Marked response: 1.28

Exam item: Please give measured thermal shift delta Tm of the following entry: `COc1cc2ncnc(Nc3ccc(Cl)cc3F)c2cc1OC`
Marked response: 0.32

Exam item: Please give measured thermal shift delta Tm of the following entry: `CC(C)(C)c1cnc(CSc2cnc(NC(=O)C3CCNCC3)s2)o1`
Marked response: 5.74

Exam item: Please give measured thermal shift delta Tm of the following entry: CC1Oc2cc(cnc2N)-c2c(nn(C)c2C#N)CN(C)C(=O)c2ccc(F)cc21 (stereo unspecified)
Marked response: 0.3

Exam item: Please give measured thermal shift delta Tm of the following entry: `Cc1cnc(Nc2ccc(OCCN3CCCC3)cc2)nc1Nc1cccc(S(=O)(=O)NC(C)(C)C)c1`
Marked response: 1.28
